System: 380
experiment: selective drug sensitivity score (sDSS, relative to normal bone marrow) (sDSS (score)); higher = more potent and effective on the cell line relative to normal bone marrow cells;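 further: ALL cell lines in 384-well plates, five doses spanning 10,000-fold, each plate scaled between vehicle and 100 µmol/L benzalkonium chloride controls, sDSS an adapted area-under-curve metric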
settings: 72 h
Assign selective drug sensitivity score to each entry below.
Numbers only.

CC(=O)Nc1ccc(C(=O)Nc2ccccc2N)cc1 [Tacedinaline] (top concentration 1000 nM)    12.2
COc1cc2c(NC3CCN(C(C)C)CC3)nc(N3CCC(F)(F)CC3)nc2cc1OCCCN1CCCC1 [UNC0642] (top concentration 10000 nM)    0.86
Cc1cccc(CC(=O)N2CCc3c2ccc(-c2cn(C)c4ncnc(N)c24)c3F)n1 (top concentration 2500 nM)    -0.68

# context switch: different compound, same selective drug sensitivity score
[in] Quote 380 selective drug sensitivity score for entry CC(=O)N(O)CCCCCNC(=O)CCC(=O)N(O)CCCCCNC(=O)CCC(=O)N(O)CCCCCN [Deferoxamine] (top concentration 10000 nM) .
[out] 1.96

----------
Task for the reader: assign each of the following compounds its reported selective drug sensitivity score.
Tested on: TANOUE
experiment: selective drug sensitivity score (sDSS, relative to normal bone marrow) (sDSS (score)); higher = more potent and effective on the cell line relative to normal bone marrow cells
settings: 72 h
Give bare numbers.

// worked examples, selective drug sensitivity score included
CCC/C=C/C=C/C(=O)O[C@H]1/C(=C/C(=O)OC)C[C@H]2C[C@H]([C@@H](C)O)OC(=O)C[C@H](O)C[C@@H]3C[C@H](OC(C)=O)C(C)(C)[C@](O)(C[C@@H]4C/C(=C/C(=O)OC)C[C@H](/C=C/C(C)(C)[C@]1(O)O2)O4)O3 [Bryostatin_1] (top concentration 100 nM)    -6.82
C=CC(=O)Nc1cc2c(Nc3ccc(F)c(Cl)c3)ncnc2cc1OCCCN1CCOCC1 [Canertinib] (top concentration 10000 nM)    -7.24
CC1=C(/C=C/C(C)=C/C=C/C(C)=C/C(=O)O)C(C)(C)CCC1 [Tretinoin] (top concentration 10000 nM)    -2.4
COc1cc2nccc(Oc3ccc(NC(=O)Nc4cc(C)on4)c(Cl)c3)c2cc1OC [Tivozanib] (top concentration 10000 nM)    -3.64
O=C(CCCCCCC(=O)Nc1ccccc1)NO [Vorinostat] (top concentration 10000 nM)    -2.6

// switching to the query compound
[in] Given CC(C)NC[C@@H](C(=O)N1CCN(c2ncnc3c2[C@H](C)C[C@H]3O)CC1)c1ccc(Cl)cc1 [Ipatasertib] (top concentration 10000 nM) , report its selective drug sensitivity score on TANOUE.
[out] -1.8

----------
Consider the following compounds; for each one, report its selective drug sensitivity score.
System: NALL-1
experiment: selective drug sensitivity score (sDSS, relative to normal bone marrow) (sDSS (score)); higher = more potent and effective on the cell line relative to normal bone marrow cells
settings: 72 h
Answers are plain numbers.

# example entries with known answers
CCCc1cc(C)[nH]c(=O)c1CNC(=O)c1cc(-c2ccnc(N3CCN(C)CC3)c2)cc2c1cnn2C(C)C [GSK343] (top concentration 1000 nM)    0
CC[C@]1(O)C[C@H]2CN(CCc3c([nH]c4ccccc34)[C@@](C(=O)OC)(c3cc4c(cc3OC)N(C)[C@H]3[C@@](O)(C(=O)OC)[C@H](OC(C)=O)[C@]5(CC)C=CCN6CC[C@]43[C@@H]65)C2)C1 [Vinblastine] (top concentration 1000 nM)    -3.8

Would you kindly look at the next entry?
[in] Enter measured selective drug sensitivity score, system NALL-1, for the compound shown: Cn1c(=O)n(-c2ccc(C(C)(C)C#N)cc2)c2c3cc(-c4cnc5ccccc5c4)ccc3ncc21 [Dactolisib] (top concentration 1000 nM)
[out] 3.46
